- Tested on: U2OS cell line stabling expressing RFP-eGFP-hLC3b
- protocol-summary: Tandem reporter assay (autophagic flux)
- Assay type: cell-based, human
- details: RFP-only puncta as percentage of DMSO-treated control, 10 μM, 24 hours
assay-metric: Autolysosome % DMSO activity (compound concentration of 10 μM) (%)
Lab book: enter the figure in %, no units written.

Test item C[C@H]1CN(C(=O)c2csc(-c3cnn(-c4ccc(C5CC5)cc4)c3)n2)CCN1 ; U2OS cell line stabling expressing RFP-eGFP-hLC3b; reported Autolysosome % DMSO activity (compound concentration of 10 μM) was 273

Test item C[C@H]1CN(C(=O)c2nc(-c3cnn(-c4ccccc4)c3)c[nH]2)CCN1 ; U2OS cell line stabling expressing RFP-eGFP-hLC3b; reported Autolysosome % DMSO activity (compound concentration of 10 μM) was 158

Test item CC(C)N(C(=O)c1csc(-c2cnn(-c3ccccc3)c2)n1)[C@@H]1CN[C@H](C)C1 ; U2OS cell line stabling expressing RFP-eGFP-hLC3b; reported Autolysosome % DMSO activity (compound concentration of 10 μM) was 152

Test item CC1CC(N(C(=O)c2csc(-c3cnn(-c4ccccc4)c3)n2)C(C)C)CC(C)N1 (centres unmarked) ; U2OS cell line stabling expressing RFP-eGFP-hLC3b; reported Autolysosome % DMSO activity (compound concentration of 10 μM) was 151

Test item CC1CC(N(C(=O)c2csc(-c3cnn(-c4ccccc4)c3)n2)C(C)C)CCN1 (centres unmarked) ; U2OS cell line stabling expressing RFP-eGFP-hLC3b; reported Autolysosome % DMSO activity (compound concentration of 10 μM) was 119

Ref: patent US20250034127A1
